# assay-summary: Acute toxicity LD50
# protocol-conditions: in vivo; species and route not given
readout-name: LD50 (mg/kg)
Number in mg/kg, nothing else.

Use the examples below as a reference point.
# item-smiles, u, LD50
measured = [
    ("O=C(CN1CCCC1=O)N1CCN(CC=Cc2ccccc2)CC1", "mg/kg", 1400),
    ("COc1ccc(CN2CCN(C(=O)CN3CCCC3=O)CC2)cc1", "mg/kg", 1110),
]

Now for the compound whose LD50 we want.
Q) Query (compound): `C=CCN1CCN(C(=O)CN2CCCC2=O)CC1` ; field requested: LD50
A) 4000
